B1: MLH1 (parent)
chain: YAHQMVRTDSREQKLDAFLQPLSK

Variants of: B1
Assay: protein stability index of a GFP-peptide fusion (GPS, HEK-293T) (PSI 1-6); higher = more stable;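 also: lentivirally expressed fusions sorted by FACS into six bins by GFP to DsRed ratio, PSI derived from sequencing read proportions per bin multiplied by bin number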
Conditions: c terminus: a fixed tail appended
Provide the reported protein stability index of each item.
Give bare numbers.

The cases that follow already have their protein stability index on record.
>>> measuredresult("Q4R")
1.93
>>> measuredresult("D16K")
2.63
>>> measuredresult("T8C")
2.27
>>> measuredresult("L15G")
3.28
>>> measuredresult("S23N")
2.42

Could I get protein stability index for every one of these entries?
1. K14E
2. R11Q
3. P21Y
4. Q20A
5. D9A
6. L19I
7. L19D

Marked response:
[2.78, 2.84, 1.71, 2.49, 2.18, 2.21, 3.02]

For each entry beneath this line, provide reported protein stability index.
1. R11F
2. R7I
3. Q20H
4. L22K
5. L19N
6. S23F
7. E12L

Marked response:
1. 2.51
2. 2.57
3. 2.78
4. 2.98
5. 2.85
6. 2.4
7. 2

Parameters: items (list). Returns: protein stability index for each item.
1. E12C
2. L15I
3. E12F
4. D9I
5. Q4H
6. F18Q
7. Q4L
8. Q13G

Marked response:
1: 2.19; 2: 2.17; 3: 1.74; 4: 2.15; 5: 2.04; 6: 3.55; 7: 2.37; 8: 2.32

Provide each entry's protein stability index from the list below.
1. M5G
2. T8F

Marked response:
[2.63, 2.12]
